Field: DC50. Provide a value for each of the compounds that follow.
Target: SMARCA4 (Homo sapiens)
Construct: SMARCA2/SMARCA4 protein degradation selectivity in MV4-11 cells; endogenous in cells; host or cells: MV4-11
Sequence (P51532 whole entry): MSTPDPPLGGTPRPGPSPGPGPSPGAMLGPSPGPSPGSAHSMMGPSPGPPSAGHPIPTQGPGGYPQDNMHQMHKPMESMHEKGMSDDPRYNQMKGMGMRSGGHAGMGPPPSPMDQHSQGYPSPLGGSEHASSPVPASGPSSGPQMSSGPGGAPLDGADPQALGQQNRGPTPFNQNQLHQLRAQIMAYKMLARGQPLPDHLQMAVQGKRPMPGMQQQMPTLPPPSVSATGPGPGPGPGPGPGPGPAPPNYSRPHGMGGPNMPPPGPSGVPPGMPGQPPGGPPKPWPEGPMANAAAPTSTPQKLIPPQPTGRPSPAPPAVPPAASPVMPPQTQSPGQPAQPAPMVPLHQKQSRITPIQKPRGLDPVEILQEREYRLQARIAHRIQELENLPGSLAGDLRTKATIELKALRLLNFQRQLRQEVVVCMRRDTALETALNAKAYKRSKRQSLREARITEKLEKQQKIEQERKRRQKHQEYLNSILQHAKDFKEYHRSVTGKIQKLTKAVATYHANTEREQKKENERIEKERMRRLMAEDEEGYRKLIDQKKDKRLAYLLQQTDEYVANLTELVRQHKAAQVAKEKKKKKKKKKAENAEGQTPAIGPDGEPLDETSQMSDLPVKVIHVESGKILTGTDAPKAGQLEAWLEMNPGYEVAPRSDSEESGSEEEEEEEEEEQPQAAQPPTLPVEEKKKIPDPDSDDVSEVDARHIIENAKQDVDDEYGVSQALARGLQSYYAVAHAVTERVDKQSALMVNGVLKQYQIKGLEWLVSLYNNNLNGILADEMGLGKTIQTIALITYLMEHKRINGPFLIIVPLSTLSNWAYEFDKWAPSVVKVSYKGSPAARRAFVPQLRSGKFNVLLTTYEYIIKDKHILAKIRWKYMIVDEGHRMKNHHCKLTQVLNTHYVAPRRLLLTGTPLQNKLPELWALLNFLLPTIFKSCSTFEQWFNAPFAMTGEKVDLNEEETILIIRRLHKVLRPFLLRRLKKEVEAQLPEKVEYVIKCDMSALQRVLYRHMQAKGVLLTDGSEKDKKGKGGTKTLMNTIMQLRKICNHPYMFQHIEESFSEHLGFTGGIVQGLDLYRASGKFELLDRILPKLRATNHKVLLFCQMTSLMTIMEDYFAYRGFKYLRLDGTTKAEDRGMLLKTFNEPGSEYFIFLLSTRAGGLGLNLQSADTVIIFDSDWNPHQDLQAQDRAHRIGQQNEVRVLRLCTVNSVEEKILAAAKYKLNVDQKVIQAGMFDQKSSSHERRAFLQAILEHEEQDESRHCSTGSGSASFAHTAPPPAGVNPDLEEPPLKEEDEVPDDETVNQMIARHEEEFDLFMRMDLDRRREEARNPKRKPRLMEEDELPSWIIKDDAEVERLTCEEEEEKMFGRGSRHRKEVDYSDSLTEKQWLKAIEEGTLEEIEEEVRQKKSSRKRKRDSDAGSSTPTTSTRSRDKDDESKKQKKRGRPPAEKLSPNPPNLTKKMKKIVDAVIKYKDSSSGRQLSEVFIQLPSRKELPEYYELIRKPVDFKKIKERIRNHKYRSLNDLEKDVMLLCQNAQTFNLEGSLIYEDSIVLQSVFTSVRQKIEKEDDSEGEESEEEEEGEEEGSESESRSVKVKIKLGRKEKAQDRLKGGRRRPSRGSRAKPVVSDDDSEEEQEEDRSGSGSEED
Experiment: SMARCA4 Western blot degradation in MV4-11 cells
Format: cell-based
Conditions: MV4-11 cells, 24 h; read-out: SMARCA4 MSD MV411 degradation 24 h: Mean external-Abs DC50
Method: Example 11. SMARCA2 and SMARCA4 Western Blot MV4-11 Degradation Cells were seeded into 6-well plates (MV4-11:4×10^6 cells/well/1 ml) and 1 ml of 2× compound solution was added into the well to make the final concentration and the plates were mixed well and incubated for 24 hours (No cytotoxicity was observed). The cell were collected with media and spun at 3000 rpm for 5 minutes. […] The membrane was washed three times with 5 minutes each and lastly the LiCOR was read. […]

In: Entry C#Cc1ccc(CNC(=O)[C@@H]2C[C@@H](O)CN2C(=O)[C@@H](NC(=O)N2CC3(CC(CCN4CCC(c5cnc(N6CCc7[nH]c8nnc(-c9ccccc9O)cc8c7[C@H]6C)nc5)CC4)C3)C2)C(C)(C)C)cc1 [I-416] , system SMARCA4 (Homo sapiens): what DC50 was measured?
Out: 0.01 to 0.1 µM

In: C#Cc1ccc(CNC(=O)[C@@H]2C[C@@H](O)CN2C(=O)[C@@H](NC(=O)N2CC3(CC(N4CCC(N5CCC(N6CCN7c8cc(-c9ccccc9O)nnc8NC[C@H]7C6)CC5)CC4)C3)C2)C(C)(C)C)cc1 [I-215] , same question.
Out: 0.01 to 0.1 µM

In: Also Cc1ncsc1-c1ccc(CNC(=O)[C@@H]2C[C@@H](O)CN2C(=O)[C@@H](NC(=O)[C@H]2CC3(CC[C@H](N4CCN(c5ccnc(N6CCc7[nH]c8nnc(-c9ccccc9O)cc8c7[C@H]6C)n5)CC4)CC3)C2)C(C)(C)C)cc1 (single isomer, unassigned) [I-81] ?
Out: 0.01 to 0.1 µM

In: Another compound to check: Cc1ncsc1-c1ccc(CNC(=O)[C@@H]2C[C@@H](O)CN2C(=O)[C@@H](NC(=O)N2CC3(CC(N4CCC(c5cnc(N6CCc7[nH]c8nnc(-c9ccccc9O)cc8c7[C@H]6C)nc5)CC4)C3)C2)C(C)(C)C)cc1 [I-58]
Out: > 0.1 µM

The measured values listed here are drawn from patent US20250170248A1.
